test: Evaluated for its ability to block the adherence of JY-8 cells to immobilized ICAM-1.
observable: IC50 (µM)

| substance-smiles | units-symbol | recorded-measurement |
| --- | --- | --- |
| O=C(/C=C/c1ccc(Sc2ccc(Cl)cc2Cl)c(Cl)c1)NCCCN1CCCC1=O | µM | 0.7 |

----------
Overview of reported IC50 across a group of compounds:
assay: Evaluated for its ability to block the adherence of JY-8 cells to immobilized ICAM-1.

| substance-smiles | IC50 |
| --- | --- |
| CCc1ccccc1Sc1ccc(/C=C/C(=O)N2CCN(C(C)=O)CC2)cc1[N+](=O)[O-] | 0.1 µM |
| O=C(/C=C/c1ccc(Sc2ccccc2/C=C/C(=O)N2CCOCC2)c(Cl)c1)N1CCOCC1 | 0.19 µM |
| CC(=O)N1CCN(C(=O)/C=C/c2ccc(Sc3ccc(Cl)cc3Cl)c([N+](=O)[O-])c2)CC1 | 0.063 µM |
| O=C(/C=C/c1ccccc1Sc1ccc(Cl)cc1Cl)N1CCOCC1 | 5.3 µM |
| CC(=O)N1CCN(C(=O)/C=C/c2ccc(Sc3ccc(Cl)cc3Cl)c(Cl)c2)CC1 | 0.24 µM |
| O=C(/C=C/c1ccc(Sc2ccccc2CN2CCN(Cc3ccc4c(c3)OCO4)CC2)c(Cl)c1)N1CCOCC1 | 0.36 µM |
| O=C(/C=C/c1ccc(Sc2ccc(Cl)cc2Cl)c([N+](=O)[O-])c1)NCCCN1CCCC1=O | 0.14 µM |
| O=C(/C=C/c1ccccc1Sc1ccc(Cl)cc1Cl)NCCCCCCO | 2.1 µM |
